Overview of reported % cleavage MMP-2 t = 60 min across a group of sequences:
Biological target: MMP-2 (Homo sapiens, UniProt P08253)
Construct: purchased SIGMA PF023
Sequence (P08253 110-660): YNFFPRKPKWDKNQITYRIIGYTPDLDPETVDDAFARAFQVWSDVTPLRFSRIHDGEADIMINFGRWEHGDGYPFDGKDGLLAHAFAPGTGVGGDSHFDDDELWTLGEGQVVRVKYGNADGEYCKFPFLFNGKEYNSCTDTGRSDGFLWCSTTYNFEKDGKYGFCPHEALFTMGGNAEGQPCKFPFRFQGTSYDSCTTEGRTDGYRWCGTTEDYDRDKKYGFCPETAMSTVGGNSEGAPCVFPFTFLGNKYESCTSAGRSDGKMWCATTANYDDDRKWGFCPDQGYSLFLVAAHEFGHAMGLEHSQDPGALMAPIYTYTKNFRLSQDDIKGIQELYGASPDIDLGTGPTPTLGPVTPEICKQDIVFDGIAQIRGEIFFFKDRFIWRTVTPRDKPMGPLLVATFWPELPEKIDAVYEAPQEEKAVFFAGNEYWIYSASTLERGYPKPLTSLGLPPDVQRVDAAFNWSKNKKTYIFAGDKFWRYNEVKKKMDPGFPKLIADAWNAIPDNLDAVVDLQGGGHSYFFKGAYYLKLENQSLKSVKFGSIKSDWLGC
Test: FRET peptide cleavage efficiency with MMP-2
Type: biochemical
Conditions: t = 60 min (Table 9)
Square brackets hold non-standard residues; d marks the D form. Ends that are not written are not given here. Tyr(3-NO2) = N[C@@H](Cc1ccc(O)c([N+](=O)[O-])c1)C(=O)O; 2Abz = Nc1ccccc1C(=O)O
quantityName: % cleavage MMP-2 t = 60 min (%)

1) RGRKSQPLVD ([2Abz]RGRKSQPLVD[Tyr(3-NO2)]-NH2) [LNK041] = 0
2) SGRVAGLVG ([2Abz]SGRVAGLVG[Tyr(3-NO2)]-NH2) [LNK016] = 100
3) SSRGPYMLQG ([2Abz]SSRGPYMLQG[Tyr(3-NO2)]-NH2) [LNK022] = 79
4) SGRVANPLGGSG ([2Abz]SGRVANPLGGSG[Tyr(3-NO2)]-NH2) [LNK053] = 5
